src = the supplement of paper PMC7877785

Test: self-splicing fitness, log relative to wild type (ln ratio); higher = more splicing; Tetrahymena group I intron in knt gene, E. coli kanamycin selection, DiMSum; sequences stand for … in CUCUCU…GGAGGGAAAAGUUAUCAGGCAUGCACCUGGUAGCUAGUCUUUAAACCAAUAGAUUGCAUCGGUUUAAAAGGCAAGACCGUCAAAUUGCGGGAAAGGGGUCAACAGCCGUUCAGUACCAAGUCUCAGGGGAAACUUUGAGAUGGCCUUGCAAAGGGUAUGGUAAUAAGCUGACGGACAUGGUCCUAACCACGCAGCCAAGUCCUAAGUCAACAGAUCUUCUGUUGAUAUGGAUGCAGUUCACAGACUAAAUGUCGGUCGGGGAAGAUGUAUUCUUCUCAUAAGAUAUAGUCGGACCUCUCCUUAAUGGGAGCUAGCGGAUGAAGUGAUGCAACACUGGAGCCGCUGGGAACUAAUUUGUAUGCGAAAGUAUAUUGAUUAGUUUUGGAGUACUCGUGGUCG;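 also: selection with 25 µg/mL kanamycin versus none on LB agar overnight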
Settings: 30 °C
observationType: self-splicing fitness (ln)
Just the number, please, no unit after it.

| sequenceRecord | self-splicing fitness (ln) |
| --- | --- |
| CCGAAGCAAUAUUACGGGAA | -2.26 |
| GUGUAGCAAUAUUACGUUAA | -2.21 |
| UGACAGCAAUAUUACGGGCU | -2.75 |
| CAACAGCAAUAUUACGAUUG | -2.22 |
| UGAAAGCAAUAUUACGGAGA | -3.09 |
| UGGAAGCAAUAUUACGAGAA | -2.05 |
| CCGUAGCAAUAUUACGCUCU | -2.65 |
| AAUGAGCAAUAUUACGUAAU | -3.08 |

IN: Which self-splicing fitness (ln) is reported for this sequence? `CGCAAGCAAUAUUACGGGUA`
OUT: -1.68

IN: Which self-splicing fitness (ln) is reported for this sequence? `AAUGAGCAAUAUUACGACGG`
OUT: -3.86

IN: Which self-splicing fitness (ln) is reported for this sequence? `GUGUAGCAAUAUUACGACCU`
OUT: -0.216

IN: Which self-splicing fitness (ln) is reported for this sequence? `UAGAAGCAAUAUUACGUGUC`
OUT: -3.27

IN: Which self-splicing fitness (ln) is reported for this sequence? `CCCCAGCAAUAUUACGAUUC`
OUT: -3.81

IN: Which self-splicing fitness (ln) is reported for this sequence? `UCUCAGCAAUAUUACGCCUC`
OUT: -3.12
